The reader will find reported IC50 values listed item by item below.
- system: LRRK2 (G2019S) (Homo sapiens, UniProt Q5S007, G2019S)
- Sequence (Q5S007 whole entry G2019S): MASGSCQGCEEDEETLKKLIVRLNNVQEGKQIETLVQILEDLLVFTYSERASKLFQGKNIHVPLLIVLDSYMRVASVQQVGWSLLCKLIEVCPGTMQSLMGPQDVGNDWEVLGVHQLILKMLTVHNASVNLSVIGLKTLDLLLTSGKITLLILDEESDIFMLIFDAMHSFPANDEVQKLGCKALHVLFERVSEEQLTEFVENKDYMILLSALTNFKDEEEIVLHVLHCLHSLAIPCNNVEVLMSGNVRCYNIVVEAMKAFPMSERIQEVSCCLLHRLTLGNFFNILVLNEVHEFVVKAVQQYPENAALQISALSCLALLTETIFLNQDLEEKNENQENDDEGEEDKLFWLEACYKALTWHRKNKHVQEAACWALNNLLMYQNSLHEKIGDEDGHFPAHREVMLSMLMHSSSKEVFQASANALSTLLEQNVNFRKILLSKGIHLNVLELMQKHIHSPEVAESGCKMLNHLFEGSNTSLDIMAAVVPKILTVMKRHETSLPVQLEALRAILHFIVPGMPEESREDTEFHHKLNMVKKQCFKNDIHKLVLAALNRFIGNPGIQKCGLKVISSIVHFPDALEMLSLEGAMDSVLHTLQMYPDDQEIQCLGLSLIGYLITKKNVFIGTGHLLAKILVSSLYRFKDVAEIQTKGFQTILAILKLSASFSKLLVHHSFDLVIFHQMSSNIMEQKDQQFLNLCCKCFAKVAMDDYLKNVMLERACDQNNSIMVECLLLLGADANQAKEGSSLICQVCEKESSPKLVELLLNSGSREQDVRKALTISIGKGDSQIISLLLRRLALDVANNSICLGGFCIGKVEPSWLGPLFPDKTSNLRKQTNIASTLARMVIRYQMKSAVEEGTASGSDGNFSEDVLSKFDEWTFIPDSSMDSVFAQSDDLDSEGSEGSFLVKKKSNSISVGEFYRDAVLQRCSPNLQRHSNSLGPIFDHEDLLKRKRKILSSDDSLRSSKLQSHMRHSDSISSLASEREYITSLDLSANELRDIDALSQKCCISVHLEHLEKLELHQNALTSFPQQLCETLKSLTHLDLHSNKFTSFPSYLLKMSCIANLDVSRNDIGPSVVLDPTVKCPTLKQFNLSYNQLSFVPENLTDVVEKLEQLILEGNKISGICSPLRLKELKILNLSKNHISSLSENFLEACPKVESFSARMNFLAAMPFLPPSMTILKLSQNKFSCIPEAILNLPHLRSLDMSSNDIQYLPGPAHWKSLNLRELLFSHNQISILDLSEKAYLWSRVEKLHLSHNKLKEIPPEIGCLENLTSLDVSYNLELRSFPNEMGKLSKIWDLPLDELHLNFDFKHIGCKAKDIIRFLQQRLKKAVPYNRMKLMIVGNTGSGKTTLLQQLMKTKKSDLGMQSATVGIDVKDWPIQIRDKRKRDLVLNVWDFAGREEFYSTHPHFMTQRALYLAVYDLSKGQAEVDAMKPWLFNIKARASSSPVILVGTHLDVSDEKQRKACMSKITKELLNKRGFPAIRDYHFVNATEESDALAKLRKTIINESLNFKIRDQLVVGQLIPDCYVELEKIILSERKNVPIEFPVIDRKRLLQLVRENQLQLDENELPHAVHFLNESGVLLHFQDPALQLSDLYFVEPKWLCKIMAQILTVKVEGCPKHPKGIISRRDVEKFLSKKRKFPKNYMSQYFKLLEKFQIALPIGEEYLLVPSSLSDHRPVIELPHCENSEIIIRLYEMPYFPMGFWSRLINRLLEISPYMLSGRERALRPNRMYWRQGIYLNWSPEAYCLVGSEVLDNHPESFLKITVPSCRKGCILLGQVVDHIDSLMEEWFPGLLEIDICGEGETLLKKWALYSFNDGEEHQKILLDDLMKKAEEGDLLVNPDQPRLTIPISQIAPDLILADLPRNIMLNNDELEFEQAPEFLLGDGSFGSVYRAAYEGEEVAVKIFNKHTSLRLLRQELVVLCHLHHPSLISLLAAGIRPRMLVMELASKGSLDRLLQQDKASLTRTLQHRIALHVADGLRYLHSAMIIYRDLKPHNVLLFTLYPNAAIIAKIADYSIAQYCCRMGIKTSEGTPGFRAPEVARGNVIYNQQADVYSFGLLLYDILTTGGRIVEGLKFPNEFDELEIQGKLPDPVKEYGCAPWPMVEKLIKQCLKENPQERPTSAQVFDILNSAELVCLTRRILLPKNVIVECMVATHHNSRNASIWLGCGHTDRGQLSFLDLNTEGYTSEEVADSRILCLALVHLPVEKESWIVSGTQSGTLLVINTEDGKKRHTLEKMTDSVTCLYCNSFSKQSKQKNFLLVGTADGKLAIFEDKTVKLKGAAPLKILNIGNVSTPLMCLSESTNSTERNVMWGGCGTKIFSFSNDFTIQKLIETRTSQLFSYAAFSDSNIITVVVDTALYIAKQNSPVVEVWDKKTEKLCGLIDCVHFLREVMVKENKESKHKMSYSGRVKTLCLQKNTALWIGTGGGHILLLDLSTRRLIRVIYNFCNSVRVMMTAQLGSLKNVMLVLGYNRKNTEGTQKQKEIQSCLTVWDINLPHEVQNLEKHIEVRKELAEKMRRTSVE
- procedure-summary: Kinase HotSpot service (Reaction Biology Corporation), LRRK2 (G2019S)
- Type: biochemical
- Set-up: purchased DiscoverX Corp. (ScanMAX Kinase analysis panel, service)
- study-conditions: ATP 10 uM, read-out: LRRK2 (G2019S) IC50 (values indicated by *)

Problem: Record request: IC50 value, item O=C(c1ccc(Nc2nc(C3CC3)c3c(C(F)(F)F)c[nH]c3n2)c2c1OCCO2)N1CCOCC1
Result: < 100 nM

Problem: What does the data say about its IC50? Entry: COc1cc(S(=O)(=O)N2CCOCC2)ccc1Nc1nc(C2CC2)c2c(C(F)(F)F)c[nH]c2n1
Result: < 100 nM

###

// values below are reported GI50
- Test system: SHP-77
- procedure-summary: Inhibition of proliferation of SHP-77 cancer cells (Cell Titer-Glo)
- Type: cell-based
- study-conditions: Homo sapiens, SHP77, 72 hours

compound	GI50
CCCNc1nc(Nc2ccc(S(=O)(=O)N3CCOCC3)cc2OC)nc2[nH]cc(C#N)c12	< 50 nM

Problem: Param readout= GI50; system= SHP-77; entry= COc1cc(S(=O)(=O)N2CCOCC2)ccc1Nc1nc(NC2CCC2)c2c(C#N)c[nH]c2n1 ; returns value.
Result: 51 to 100 nM

Problem: Hi! What's the reported GI50 for COCCNc1nc(Nc2ccc(S(=O)(=O)N3CCC(N4CCOCC4)CC3)cc2OC)nc2[nH]cc(C(F)(F)F)c12 on SHP-77?
Result: 101 to 300 nM

Problem: Provide the documented GI50 with SHP-77 as the system for COc1cc(S(=O)(=O)N2CCOCC2)ccc1Nc1nc(NCC(C)C)c2c(C#N)c[nH]c2n1
Result: < 50 nM

###

As an illustration, consider measured IC50 for compounds on human GST-DYRK1A (Homo sapiens).

// known answers, use as guide
smiles-entry	IC50
N#Cc1c[nH]c2nc(Nc3ccc(C(=O)N4CCOCC4)c4c3OCCO4)nc(NCC3CC3)c12	301 to 1000 nM
CC(C)CNc1nc(Nc2ccc(C(=O)N3CCOCC3)c3c2OCC3)nc2[nH]cc(C(F)(F)F)c12	301 to 1000 nM
COCCNc1nc(Nc2ccc(P3(=O)CCN(C4CCOCC4)CC3)cc2OC)nc2[nH]cc(C(F)(F)F)c12	< 100 nM

Problem: Please tell me: IC50 of O=C(c1ccc(Nc2nc(NC3CCC3)c3c(C(F)(F)F)c[nH]c3n2)c2c1OCCO2)N1CCOCC1 , system human GST-DYRK1A (Homo sapiens)?
Result: 301 to 1000 nM

###

- system: FAK (Homo sapiens)
- Construct: purchased DiscoverX Corp. (ScanMAX Kinase analysis panel, service)
- Sequence (Q05397 whole entry): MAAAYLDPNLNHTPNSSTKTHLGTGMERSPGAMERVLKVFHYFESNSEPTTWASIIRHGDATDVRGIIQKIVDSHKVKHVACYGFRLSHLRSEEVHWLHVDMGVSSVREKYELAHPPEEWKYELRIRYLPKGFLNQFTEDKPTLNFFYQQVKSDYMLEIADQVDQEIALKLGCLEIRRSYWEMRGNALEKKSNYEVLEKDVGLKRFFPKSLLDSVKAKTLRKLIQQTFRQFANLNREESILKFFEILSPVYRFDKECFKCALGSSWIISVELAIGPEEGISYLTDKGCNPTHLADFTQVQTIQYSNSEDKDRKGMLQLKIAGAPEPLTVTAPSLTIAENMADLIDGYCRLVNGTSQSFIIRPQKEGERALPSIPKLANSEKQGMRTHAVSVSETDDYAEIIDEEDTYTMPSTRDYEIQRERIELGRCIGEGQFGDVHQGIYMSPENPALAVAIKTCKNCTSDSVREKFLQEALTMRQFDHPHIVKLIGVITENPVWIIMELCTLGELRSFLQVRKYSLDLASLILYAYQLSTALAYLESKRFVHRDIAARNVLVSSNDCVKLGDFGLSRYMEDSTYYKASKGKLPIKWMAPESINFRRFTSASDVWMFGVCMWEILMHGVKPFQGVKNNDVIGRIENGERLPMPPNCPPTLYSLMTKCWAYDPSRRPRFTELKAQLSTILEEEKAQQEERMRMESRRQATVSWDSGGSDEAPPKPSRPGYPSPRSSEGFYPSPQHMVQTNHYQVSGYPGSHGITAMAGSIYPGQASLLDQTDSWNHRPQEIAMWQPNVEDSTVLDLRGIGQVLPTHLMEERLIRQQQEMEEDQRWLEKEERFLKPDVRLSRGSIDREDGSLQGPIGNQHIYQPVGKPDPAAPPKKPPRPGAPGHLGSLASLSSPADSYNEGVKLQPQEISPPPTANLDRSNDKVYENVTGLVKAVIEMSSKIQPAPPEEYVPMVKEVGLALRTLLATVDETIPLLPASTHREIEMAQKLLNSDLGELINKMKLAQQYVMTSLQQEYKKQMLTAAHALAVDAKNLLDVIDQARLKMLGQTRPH
- procedure-summary: ScanMAX Kinase analysis panel, FAK
- Assay type: binding
- study-conditions: 1 μM in DMSO; <35% considered inhibitory; read-out: percent control (% control), FAK
measured-attribute: remaining binding at 1 µM (%)
Dear colleague, please return just the value in %, with no unit written.

Answered cases to consult:
molecule	remaining binding at 1 µM / %
O=C(c1ccc(Nc2nc(C3CC3)c3c(C(F)(F)F)c[nH]c3n2)c2c1OCCO2)N1CCC(N2CCOCC2)CC1	24
CNc1nc(Nc2ccc(S(=O)(=O)N3CCC(N4CCOCC4)CC3)cc2OC)nc2[nH]cc(C(F)(F)F)c12 [Example 157, 2,2,2-trifluoroacetate]	0.85
CCNc1nc(Nc2ccc(S(=O)(=O)N3CCC(N4CCOCC4)CC3)cc2OC)nc2[nH]cc(C(F)(F)F)c12 [Example 158, 2,2,2-trifluoroacetate]	1.1
CNc1nc(Nc2ccc(C(=O)N3CCC(N4CCOCC4)CC3)c3c2OCCO3)nc2[nH]cc(C(F)(F)F)c12	7.8
CCCNc1nc(Nc2ccc(S(=O)(=O)N3CCC(N4CCOCC4)CC3)cc2OC)nc2[nH]cc(C(F)(F)F)c12	2.3
CNc1nc(Nc2ccc(P3(=O)CCN(C4CC4)CC3)cc2OC)nc2[nH]cc(C(F)(F)F)c12	10

Please examine the following record next.
Problem: Reported remaining binding at 1 µM, molecule C=CCNc1nc(Nc2ccc(S(=O)(=O)N3CCC(N4CCOCC4)CC3)cc2OC)nc2[nH]cc(C#N)c12 : ____
Result: 0.75

###

Below are IC50 values recorded for human GST-CLK1 (Homo sapiens, UniProt P49759).

Below: 3 compounds and their reported IC50.
smiles-entry	IC50
COc1cc(S(=O)(=O)N2CCC(N3CCOCC3)CC2)ccc1Nc1nc(NC(C)C)c2c(C(F)(F)F)c[nH]c2n1	301 to 1000 nM
CC[C@@H](C)Nc1nc(Nc2ccc(S(=O)(=O)N3CCC(N4CCOCC4)CC3)cc2OC)nc2[nH]ccc12	301 to 1000 nM
CNc1nc(Nc2ccc(P3(=O)CCN(C4CC4)CC3)cc2OC)nc2[nH]cc(C(F)(F)F)c12	101 to 300 nM

Problem: I am curious: what IC50 value has been reported for CC[C@H](C)Nc1nc(Nc2ccc(P(C)(C)=O)cc2OC)nc2[nH]cc(C(F)(F)F)c12 ?
Result: 301 to 1000 nM

Problem: Record request: IC50 value, item COc1cc(P2(=O)CCN(C3COC3)CC2)ccc1Nc1nc(N[C@H]2CCOC2)c2c(C#N)c[nH]c2n1
Result: < 100 nM

Problem: Quick one: IC50 of CCNc1nc(Nc2ccc(C(=O)N3CC[C@H](N4CCOCC4)C3)c3c2OCC3)nc2[nH]cc(C(F)(F)F)c12 ?
Result: < 100 nM

Problem: Any idea what its IC50 is? The compound is COc1cc(P(C)(C)=O)ccc1Nc1nc(NCC2CCC2)c2c(C(F)(F)F)c[nH]c2n1
Result: 301 to 1000 nM

###

pIC50: −log10 of the molar value.
pIC50 tested on human GST-CLK1 (Homo sapiens, UniProt P49759): recorded values
Sequence (P49759 129-484 limits assumed): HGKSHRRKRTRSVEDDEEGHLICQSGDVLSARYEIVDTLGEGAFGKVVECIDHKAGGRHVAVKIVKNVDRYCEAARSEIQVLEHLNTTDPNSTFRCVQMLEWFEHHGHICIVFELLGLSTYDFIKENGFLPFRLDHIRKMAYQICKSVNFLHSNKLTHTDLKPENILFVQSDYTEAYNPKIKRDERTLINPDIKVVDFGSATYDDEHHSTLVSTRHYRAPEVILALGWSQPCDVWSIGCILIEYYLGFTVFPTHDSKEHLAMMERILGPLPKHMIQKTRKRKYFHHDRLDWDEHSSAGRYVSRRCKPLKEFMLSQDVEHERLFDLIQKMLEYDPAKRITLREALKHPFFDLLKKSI

molecule	measured-attribute	value-measured
CNc1nc(Nc2ccc(S(=O)(=O)N3CCC(N4CCOCC4)CC3)c3c2OCCO3)nc2[nH]cc(C(F)(F)F)c12 [Example 219]	pIC50	> 7.00
CCCCNc1nc(Nc2ccc(S(=O)(=O)N3CCC(N4CCOCC4)CC3)cc2OC)nc2[nH]cc(C#N)c12 [Example 97]	pIC50	6.00 to 6.52

Problem: Requested read-out pIC50, target or system human GST-CLK1 (Homo sapiens, UniProt P49759), entry CN1CCC(NC(=O)c2ccc(Nc3nc(NC4CCCCC4)c4c(C#N)c[nH]c4n3)c3c2OCCO3)CC1 [Example 143]
Result: > 7.00

Problem: Return pIC50 measured with human GST-CLK1 (Homo sapiens, UniProt P49759) given this molecule: O=C(c1ccc(Nc2nc(NC3CCOCC3)c3c(C(F)(F)F)c[nH]c3n2)c2c1CCO2)N1CCOCC1 [Example 456]
Result: > 7.00

Problem: Lab note: need pIC50 with human GST-CLK1 (Homo sapiens, UniProt P49759) for entry CC(C)Nc1nc(Nc2ccc(C(=O)N3CCOCC3)c3c2OCC3)nc2[nH]cc(C#N)c12 [Example 352] , please look it up.
Result: > 7.00

Problem: Request body: readout pIC50, system human GST-CLK1 (Homo sapiens, UniProt P49759), query COc1cc(P(C)(C)=O)ccc1Nc1nc(NC2CCOCC2)c2c(C#N)c[nH]c2n1 [Example 272] . Return the value.
Result: 6.00 to 6.52

Problem: What is its pIC50 for human GST-CLK1 (Homo sapiens, UniProt P49759)? Entry: CCCCNc1nc(Nc2ccc(P(C)(C)=O)cc2OC)nc2[nH]cc(C(F)(F)F)c12 [Example 393]
Result: 6.00 to 6.52

###

Entries and their measured inhibition at 0.5 µM follow.
- System: IL-6
- procedure-summary: Inhibition of LPS-induced IL-6 secretion of THP-1 monocytes (ELISA)
- Assay type: cell-based, human
- study-conditions: Homo sapiens, THP-1; compound 0.5 μM, LPS 500 ng/mL, 24 hours; read-out: THP1/IL6 (% inhib)
I only need the number, in %, no unit after it.

Examples with answers:
molecule	measured-attribute	value-measured
O=C(c1ccc(Nc2nc(NC3CC3)c3c(C(F)(F)F)c[nH]c3n2)c2c1CCO2)N1CCC(N2CCOCC2)CC1	inhibition at 0.5 µM	34.1
COc1cc(S(=O)(=O)N2CCC(N3C[C@H]4C[C@@H]3CO4)CC2)ccc1Nc1nc(C2CC2)c2c(C(F)(F)F)c[nH]c2n1	inhibition at 0.5 µM	31
COCCNc1nc(Nc2ccc(C(=O)N3CCC(N4CCOCC4)CC3)c3c2OCC3)nc2[nH]cc(C(F)(F)F)c12	inhibition at 0.5 µM	4.6
O=C(c1ccc(Nc2nc(N[C@H]3CCOC3)c3c(C(F)(F)F)c[nH]c3n2)c2c1OCCO2)N1CCN(C2COC2)CC1	inhibition at 0.5 µM	35.5
COCCNc1nc(Nc2ccc(C(=O)N3CCOCC3)c3c2OCC3)nc2[nH]cc(C(F)(F)F)c12	inhibition at 0.5 µM	31.4

Problem: So what's the measured inhibition at 0.5 µM for this one? CNc1nc(Nc2ccc(C(=O)N3CCC(N4CCOCC4)CC3)c3c2OCC3)nc2[nH]cc(C(F)(F)F)c12
Result: 23.4

Problem: Name the recorded inhibition at 0.5 µM for COCCNc1nc(Nc2ccc(C(=O)N3CCN(C4COC4)CC3)c3c2OCCO3)nc2[nH]cc(C(F)(F)F)c12 .
Result: 30.1
